Entry source: patent US20240279318A1

assayed_target: T1, AFP158/HLA-A*02:01 complex (human)
T1 construct: flowed as analyte in SPR
assay_explanation: SPR, crude scFv captured, pMHC analyte;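 further: complex injected at several concentrations over the chip, association phase then running buffer for dissociation, KD derived from on- and off-rates computed from both curves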
measured_property: Kd (nM)
Numbers only, in nM.

>  <binder>
AS170036 VL1VH1-57H98F108S (scFv, also called 60-AS170036 VL1VH1-57H98F108S) scFv: QSALTQPRSVSGSPGQSVTISCAGTSSDVGSENYVSWYQQHPGKAPKLMIYQVNKRASGVPDRFSGSKSGNTASLTISGLQAEDEADYYCASYRSSDFNIVFGGGTKLTVLGGGGSGGGGSGGGGSEVQLVESGGGLVQPGGSLRLSCAASGFTFSSYAMSWVRQAPGKGLEWVSTINSGTGHPYYADSVKGRFTISRDNSKNTLYLQMNSLRAEDTAVYYCAKNFFDGSWFLSPPAMDYWGQGTLVTVSSHHHHHH

>  <result_number>
3.4

$$$$
>  <binder>
AS170036 VL1VH1 (scFv, Crude scFv from E. coli TG1 supernatant; also called AS170036 VL1VH1 scFv) scFv: QSALTQPRSVSGSPGQSVTISCAGTSSDVGSENYVSWYQQHPGKAPKLMIYQVNKRASGVPDRFSGSKSGNTASLTISGLQAEDEADYYCASYRSSDHNIVFGGGTKLTVLGGGGSGGGGSGGGGSEVQLVESGGGLVQPGGSLRLSCAASGFTFSSYAMSWVRQAPGKGLEWVSTINSGTGSPYYADSVKGRFTISRDNSKNTLYLQMNSLRAEDTAVYYCAKNFFDGSWFLGPPAMDYWGQGTLVTVSSHHHHHH

>  <result_number>
230

$$$$

Read the next record carefully.
Dear colleague, please send me the reported Kd for AS170036 VL1VH1-57H98Q108A (scFv, also called 64-AS170036 VL1VH1-57H98Q108A) scFv: QSALTQPRSVSGSPGQSVTISCAGTSSDVGSENYVSWYQQHPGKAPKLMIYQVNKRASGVPDRFSGSKSGNTASLTISGLQAEDEADYYCASYRSSDQNIVFGGGTKLTVLGGGGSGGGGSGGGGSEVQLVESGGGLVQPGGSLRLSCAASGFTFSSYAMSWVRQAPGKGLEWVSTINSGTGHPYYADSVKGRFTISRDNSKNTLYLQMNSLRAEDTAVYYCAKNFFDGSWFLAPPAMDYWGQGTLVTVSSHHHHHH when you can. 1.8
